These measurements were taken from patent US20170029355A1.

Test system: velvetleaf
Test summary: Greenhouse post-emergent control of velvetleaf by emulsifiable concentrates (Example 29)
Format: in vivo
Applied conditions: 280 g dicamba equivalent per hectare, three weeks after treatment
Let's look at some compounds and their measured % Control of velvetleaf, 280 g/ha.
Write the number in % without appending the unit.

Consider the following illustrative entries.
1) COc1c(Cl)ccc(Cl)c1C(=O)OCc1ccccc1[N+](=O)[O-] [Ester 1a, 2-Nitrobenzyl Ester of Dicamba]    60
2) COc1c(Cl)ccc(Cl)c1C(=O)O.NCCOCCO [Diglycolamine salt, diglycolamine salt of dicamba, reference compound]    63
3) COc1c(Cl)ccc(Cl)c1C(=O)OCCc1ccccc1[N+](=O)[O-] [Ester 2, 2-Nitrophenethyl Ester of Dicamba]    69
4) CCCCOc1ccc(C(=O)COC(=O)c2c(Cl)ccc(Cl)c2OC)cc1 [Ester 10]    33

Please give the measured % Control of velvetleaf, 280 g/ha for this compound: COc1ccc(C(=O)COC(=O)c2c(Cl)ccc(Cl)c2OC)cc1 [Ester 9] 19
